These entries and their values trace back to patent US20240269139A1.

Biological target: protein kinases (human kinome) (Homo sapiens)
Sequence (Q14004 whole entry): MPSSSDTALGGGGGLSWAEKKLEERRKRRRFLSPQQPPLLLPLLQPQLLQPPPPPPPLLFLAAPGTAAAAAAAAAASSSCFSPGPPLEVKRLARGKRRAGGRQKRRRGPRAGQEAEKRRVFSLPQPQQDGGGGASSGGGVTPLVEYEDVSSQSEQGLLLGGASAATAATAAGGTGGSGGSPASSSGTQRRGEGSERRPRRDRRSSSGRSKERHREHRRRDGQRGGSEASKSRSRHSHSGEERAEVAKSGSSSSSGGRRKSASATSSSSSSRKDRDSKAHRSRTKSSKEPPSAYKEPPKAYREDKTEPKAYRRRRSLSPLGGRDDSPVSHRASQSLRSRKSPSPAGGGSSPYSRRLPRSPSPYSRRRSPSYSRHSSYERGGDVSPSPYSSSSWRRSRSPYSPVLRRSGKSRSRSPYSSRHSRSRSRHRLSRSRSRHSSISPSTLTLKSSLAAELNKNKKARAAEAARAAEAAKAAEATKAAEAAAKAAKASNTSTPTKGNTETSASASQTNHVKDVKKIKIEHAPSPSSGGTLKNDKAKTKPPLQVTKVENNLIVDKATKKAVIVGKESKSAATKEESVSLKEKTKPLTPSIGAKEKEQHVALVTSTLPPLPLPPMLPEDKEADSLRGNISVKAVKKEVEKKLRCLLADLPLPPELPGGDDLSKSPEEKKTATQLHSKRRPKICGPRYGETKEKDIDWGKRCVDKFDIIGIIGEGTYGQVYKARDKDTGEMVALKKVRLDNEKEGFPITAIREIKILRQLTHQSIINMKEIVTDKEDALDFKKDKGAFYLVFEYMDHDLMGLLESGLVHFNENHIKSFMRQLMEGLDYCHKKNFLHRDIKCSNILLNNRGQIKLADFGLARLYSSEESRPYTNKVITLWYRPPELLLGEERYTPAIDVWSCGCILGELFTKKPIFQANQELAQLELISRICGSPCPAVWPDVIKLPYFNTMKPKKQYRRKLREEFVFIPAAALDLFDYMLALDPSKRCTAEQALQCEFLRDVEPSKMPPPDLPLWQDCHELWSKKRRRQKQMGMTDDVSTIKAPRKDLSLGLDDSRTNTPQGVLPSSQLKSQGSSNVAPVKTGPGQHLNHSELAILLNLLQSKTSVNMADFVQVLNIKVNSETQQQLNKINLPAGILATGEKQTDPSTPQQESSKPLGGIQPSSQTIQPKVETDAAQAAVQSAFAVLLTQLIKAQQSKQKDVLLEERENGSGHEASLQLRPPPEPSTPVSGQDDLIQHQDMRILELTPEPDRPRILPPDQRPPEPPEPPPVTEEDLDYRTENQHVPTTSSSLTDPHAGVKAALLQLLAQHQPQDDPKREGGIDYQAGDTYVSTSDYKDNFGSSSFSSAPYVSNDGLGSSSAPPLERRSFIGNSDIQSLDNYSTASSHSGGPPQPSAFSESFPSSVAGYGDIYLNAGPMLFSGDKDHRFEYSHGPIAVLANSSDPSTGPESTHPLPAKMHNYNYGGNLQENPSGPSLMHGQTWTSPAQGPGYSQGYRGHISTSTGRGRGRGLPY
Type: cell-based
Settings: Accession Q14004-1; experiment wp016

molecule	logFC CDK13
CC(C)S(=O)(=O)c1ccccc1Nc1nc(Nc2ccc(N3CCN(CCOCCOCCNC(=O)CNc4ccc5c(c4)C(=O)N(C4CCC(=O)NC4=O)C5=O)CC3)cc2)ncc1Cl (stereo not shown) [LT2.49]	−0.3839
CC(C)S(=O)(=O)c1ccccc1Nc1nc(Nc2ccc(N3CCN(CCOCCOCCNC(=O)CNc4cccc5c4C(=O)N(C4CCC(=O)NC4=O)C5=O)CC3)cc2)ncc1Cl (stereo not shown) [TL12.186]	−0.5885
CC(C)S(=O)(=O)c1ccccc1Nc1nc(Nc2ccc(N3CCN(CCOCCNC(=O)CNc4ccc5c(c4)C(=O)N(C4CCC(=O)NC4=O)C5=O)CC3)cc2)ncc1Cl (stereo not shown) [SK.3.93]	−0.5636
CC(C)S(=O)(=O)c1ccccc1Nc1nc(Nc2ccc(N3CCN(CCOCCNC(=O)CNc4cccc5c4C(=O)N(C4CCC(=O)NC4=O)C5=O)CC3)cc2)ncc1Cl (stereo not shown) [SK.3.91]	−0.6046
